Here, each record is paired with measured EC50 data.
# System: MKN45
# assay.comment: Inhibition of cell viability (MTS), MKN45
# Format: cell-based
# condition.notes: Homo sapiens, MKN-45, 96 h, MKN45 cells, 96 hours incubation

Examples with their reported EC50 follow.
CC(c1ccc2nc(NC(=O)C3CC3)cn2n1)c1nnc2ccc(-c3cccc(C#N)c3)cn12 (stereo not drawn) : < 30 nM
O=C(Nc1cn2nc(Sc3nnc4ccc(-c5nn[nH]n5)cn34)ccc2n1)C1CC1 : > 630 nM
CC(C)c1ccc(-c2ccc3nnc(C(F)(F)c4ccc5nc(NC(=O)C6CC6)cn5n4)n3c2)cc1 : < 30 nM
CS(=O)(=O)c1cncc(-c2ccc3nnn(Cc4ccc5nc(NC(=O)C6CC6)cn5n4)c3c2)c1 : > 630 nM
CS(=O)(=O)c1cccc(-c2ccc3nnc(C(F)(F)c4ccc5nc(NC(=O)C6CC6)cn5n4)n3c2)c1 : < 30 nM
C[C@@H](c1ccc2nc(NC(=O)C3CC3)cn2n1)c1nnc2ccc(-c3cnn(C)c3)cn12 : 30 to 59 nM
Cn1cc(-c2ccc3nnc(Sc4ccc5nc(NC(=O)C6CC6)cn5n4)n3c2)cn1 : < 100 nM
CC(c1ccc2nc(NC(=O)C3CC3)cn2n1)c1nnc2ccc(-c3cccc(C(N)=O)c3)cn12 (stereo not drawn) : 100 to 249 nM

Query block: // lookup EC50 for O=C(Nc1cn2nc(Sc3nnc4ccc(Cl)cn34)ccc2n1)C1CC1
Result block: 250 to 630 nM

Query block: Entry O=C(Nc1cn2nc(C(F)(F)c3nnc4ccc(-c5cncnc5)cn34)ccc2n1)C1CC1 has what EC50?
Result block: 30 to 59 nM
